test: Selectivity index, ratio of HC50 for hemolytic activity in sheep erythrocytes to MIC for antibacterial activity against Staphylococcus aureus ATCC 29213; assay type: toxicity, cell-based, RBC
result-type: selectivity ratio

In [3]: df
Out[3]:
                              smiles_string        result_type  experimental_result
0  C=CCc1cc(-c2ccc(OCCC[N+](C)(C)CC(=O)NCCCC)c(CC=C)c2)c2oc(=S)n(Cc3cccc(Br)c3)c2c1.[Br-]  selectivity ratio                 > 10
1  C=CCc1cc(-c2ccc(OCCC[N+](C)(C)CC(=O)NCCCC)c(CC=C)c2)c2oc(=S)n(Cc3ccc(F)cc3)c2c1.[Br-]  selectivity ratio                 95.1
2  C=CCc1cc(-c2ccc(OCCC[N+](C)(C)CC(=O)NCCCC)c(CC=C)c2)c2oc(=S)n(Cc3ccccc3)c2c1.[Br-]  selectivity ratio                 > 20
3  C=CCc1cc(-c2ccc(OCCC[N+](C)(C)CC(=O)NCCCC)c(CC=C)c2)c2oc(=S)n(Cc3ccc(F)c(Cl)c3)c2c1.[Br-]  selectivity ratio               > 1.25
